# Tested on: HepG2 cells
# experimental_details: Growth inhibition of HepG2 human liver carcinoma cells (sulforhodamin-B method)
# Assay type: cell-based
# reported_conditions: 144 h, HepG2 cells, six days of substance incubation, protein amount by sulforhodamin-B, read-out: IC50-value
pIC50: −log10 of the molar value.
parameter_measured: pIC50

chemical_string: O=C(C=Cc1cccnc1)NCCCCNC(c1ccccc1)c1ccccc1
parameter_measured: pIC50
value_reported: 6.70

1. O=C(C=Cc1cccnc1)NCCCCC(O)(c1ccccc1)c1ccccc1
2. O=C(C=Cc1cccnc1)NCCCCn1cnc(-c2ccccc2)c1-c1ccccc1
Input line: Lowest pIC50? choose 1 or 2 Answer by quoting the chosen item's label.
Output line: 1

* * *

melting point values, listed per item

Past entries and their recorded results:
compound: O=C(C=Cc1cccnc1)NCCCCN1CCc2ccccc2C(c2ccccc2)C1 (stereo not shown)
melting point: 92 to 94 °C
//
compound: O=C(C=Cc1cccnc1)NCCCCC(O)(c1ccccc1)c1ccccc1
melting point: 157 to 159 °C
//
compound: O=C(C=Cc1cccnc1)NCCCCC=C(c1ccccc1)c1ccccc1
melting point: 120 to 121 °C
//
compound: O=C(C=Cc1cccnc1)NCCCCCC(O)(c1ccccc1)c1ccccc1
melting point: 145 to 147 °C
//
compound: Cc1ccc(S(=O)(=O)NCCCCCCNC(=O)C=Cc2cccnc2)cc1
melting point: 91 to 93 °C

Input line: Please look up its melting point: O=C(C=Cc1cccnc1)NCCCCCCNC(=O)N(c1ccccc1)c1ccccc1
Output line: 105 to 107 °C

Input line: Can you share its melting point? I mean this compound: O=C(C=Cc1cccnc1)NCCCCCCNC(=O)N1c2ccccc2CCc2ccccc21
Output line: 97 to 99 °C

Input line: # melting point lookup, item O=C(C=Cc1cccnc1)NCCCCNC(c1ccccc1)c1ccccc1
Output line: 101 to 102 °C

Input line: What does the data say about its melting point? Entry: O=C(C=Cc1cccnc1)NCCCCCCCc1ccccc1
Output line: 61 to 63 °C

Input line: Consider the compound shown here: O=C(C=Cc1cccnc1)NCCCCNC(=O)[C@@H]1C[C@H]1c1ccccc1 (relative stereo) What is its recorded melting point?
Output line: 194 to 196 °C
